- Tested on: P-Tyr-100 antiphosphotyrosine monoclonal antibody
- procedure-summary: Ligand analog screening: fluorescence intensity and polarization vs P-Tyr-100 antibody concentration (Examples 22, 24)
- Assay type: binding, mouse
- stated-conditions: ratio of fluorescence intensity at lowest (Fmax) to highest (Fmin) antibody concentration; 50 nM ligand analog, P-Tyr-100 0.8 to 500 nM; ex/em 480/535 nm
Fmax/Fmin by entry:
metric-name: Fmax/Fmin

INSERT INTO measurements (compound, study_system, readout_value) VALUES
  ('O=C(NCCc1ccc(OP(=O)(O)O)cc1)c1ccc(C(=O)O)c(-c2c3cc(F)c(=O)cc-3oc3cc(O)c(F)cc23)c1 [Compound 15, Oregon Green 488 6-phosphotyramide]', 'P-Tyr-100 antiphosphotyrosine monoclonal antibody', 5.4),
  ('O=C(O)c1cc(NC(=S)NCCc2ccc(OP(=O)(O)O)cc2)ccc1-c1c2ccc(=O)cc-2oc2cc(O)ccc12 [Compound 18, 5-FITC phosphotyramide]', 'P-Tyr-100 antiphosphotyrosine monoclonal antibody', 1.7),
  ('O=C(CSc1c(F)c(F)c(C(=O)O)c(-c2c3cc(F)c(=O)cc-3oc3cc(O)c(F)cc23)c1F)NCCc1ccc(OP(=O)(O)O)cc1 [Compound 7, Oregon Green 514 phosphotyramide]', 'P-Tyr-100 antiphosphotyrosine monoclonal antibody', 4.0),
  ('O=C(NCCc1ccc(OP(=O)(O)O)cc1)c1ccc(-c2c3ccc(=O)cc-3oc3cc(O)ccc23)c(C(=O)O)c1 [Compound 8, 5-FAM phosphotyramide]', 'P-Tyr-100 antiphosphotyrosine monoclonal antibody', 1.3),
  ('O=C(NCCc1ccc(OP(=O)(O)O)cc1)c1ccc(C(=O)O)c(-c2c3ccc(=O)cc-3oc3cc(O)ccc23)c1 [Compound 9, 6-FAM phosphotyramide]', 'P-Tyr-100 antiphosphotyrosine monoclonal antibody', 3.2);

---

- study-system: P-Tyr-100 anti-phosphotyrosine monoclonal antibody
- procedure-summary: Determination of dissociation constants for antibody-ligand complexes (Example 23)
- stated-conditions: 1 nM test compound, P-Tyr-100 0.02 to 40 nM; fluorescence intensity, single-site saturation fit; read-out: dissociation constant
Kd by entry:
metric-name: Kd (nM)

INSERT INTO assay_data (molecule, readout_value) VALUES
  ('NC(=O)C(Cc1ccc(OP(=O)(O)O)cc1)NC(=O)c1ccc(C(=O)O)c(-c2c3cc(F)c(=O)cc-3oc3cc(O)c(F)cc23)c1 (centres unmarked)', 1.7),
  ('O=C(NCCc1ccc(OP(=O)(O)O)cc1)c1ccc(C(=O)O)c(-c2c3cc(F)c(=O)cc-3oc3cc(O)c(F)cc23)c1 [Compound 15, Oregon Green 488 6-phosphotyramide]', 2);

These data points were gathered from patent US7282339B2.
